Data provenance is patent US12077503B2.

- System: barnyardgrass (Echinochloa crus-galli)
- Assay Remarks: Test A preemergence
- Assay type: in vivo
- Protocol Conditions: 125 g ai/ha, Preemergence; visual injury after approximately 10 d; 0 to 100 scale where 0 is no effect and 100 is complete control
Examples of molecules with documented Plant response rating, Barnyardgrass follow.

# Molecule, Plant response rating, Barnyardgrass
measured = [
    ("O=C1NCC(c2cc(C(F)(F)F)ccc2F)C1C(=O)Nc1ccc(F)cc1F (stereo not drawn) [Compound 595]", 90),
    ("CN1CC(c2cccc(C(F)(F)F)c2)C(C(=O)Nc2cccc(Cl)c2F)C1=O (stereo not drawn) [Compound 574]", 90),
    ("O=C1NCC(c2ccc(Oc3ccccc3)cc2)C1C(=O)Nc1ccc(F)c(F)c1F (racemic) [Compound 537]", 0),
    ("CC(C)Oc1cccc(C2CN(C)C(=O)C2C(=O)Nc2ccccc2F)c1 (stereo not drawn) [Compound 650]", 100),
    ("O=C1NCC(c2ccc(C(F)(F)F)c(F)c2)C1C(=O)Nc1ccc(F)cc1F (racemic) [Compound 522]", 90),
    ("Cc1cc(F)ccc1NC(=O)C1C(=O)N(C)CC1c1cccc(C(F)(F)F)c1 (stereo not drawn) [Compound 575]", 90),
    ("COCc1cccc(C2CNC(=O)C2C(=O)Nc2ccccc2Cl)c1 (stereo not drawn) [Compound 498]", 30),
    ("CN1CC(c2ccc(F)c(C(F)(F)F)c2)C(C(=O)Nc2cccc(F)c2F)C1=O (stereo not drawn) [Compound 613]", 90),
    ("CN1CC(c2ccc(C(F)(F)F)cc2)C(C(=O)Nc2ccc(F)cc2F)C1=O (stereo not drawn) [Compound 625]", 80),
]

* * *

- System: ivy-leaved morning glory (Ipomoea hederacea)
- Assay Remarks: Test G Post-Emergence Protocol
- Assay type: in vivo
- Protocol Conditions: Ipomoea, post-emergence, 312 h, 250 g ai/ha, evaluated after 13 days, 100=total damage to plant, 0=no damage to plant, read-out: Morningglory, Ivy-leaved damage rating
Recorded measurements of pest or weed control at 250 g/ha, one per entry
Observed Property: pest or weed control at 250 g/ha (%)

# Compound, Observed Value
records = [
    ("CON1C[C@@H](c2cccc(C(F)(F)F)c2)[C@H](C(=O)Nc2cccc(F)c2F)C1=O (racemic)", 50),
    ("Cc1nc(F)ccc1NC(=O)[C@@H]1C(=O)N(C)C[C@H]1c1ccc(C(F)(F)F)cc1 (racemic)", 30),
    ("CN1C[C@H](c2cccc(C(F)F)c2)[C@@H](C(=O)Nc2cnccc2C(F)(F)F)C1=O (racemic)", 40),
    ("COc1c(C)cc(C2CN(C)C(=O)C2C(=O)Nc2cccc(F)c2F)cc1C (stereo not shown)", 70),
    ("CN1C[C@@H](c2ccc(C(F)(F)F)cc2)[C@H](C(=O)Nc2ccnc(Cl)c2F)C1=O (racemic)", 0),
    ("CN1C[C@H](c2ccc(C(F)(F)F)cc2)[C@@H](C(=O)Nc2ccc3ncccc3n2)C1=O (racemic)", 0),
    ("CN1C[C@@H](c2ccc(C(F)(F)F)cc2)[C@H](C(=O)Nc2n[nH]cc2Cl)C1=O (racemic)", 20),
]

* * *

- Test system: corn (Zea mays)
- Assay Remarks: Test G Post-Emergence Protocol
- Format: in vivo
- Protocol Conditions: Zea mays, post-emergence, 312 h, 62.5 g ai/ha, evaluated after 13 days, read-out: Corn damage rating (100=total damage to plant; 0=no damage to plant)
Known plant injury at 62.5 g/ha of a selection of compounds

# Compound, Unit Of Measurement, plant injury at 62.5 g/ha
data = [
    ("CN1C[C@@H](c2ccc(C(F)(F)F)cc2)[C@H](C(=O)Nc2nnc[nH]2)C1=O (racemic)", "%", 10),
    ("CN1C[C@H](c2ccc3c(c2)OCCO3)[C@@H](C(=O)Nc2cccc(F)c2F)C1=O (racemic)", "%", 30),
    ("CN1C[C@@H](c2ccc(C(F)(F)F)cc2)[C@H](C(=O)Nc2ccncc2Cl)C1=O (racemic)", "%", 10),
    ("Cc1cc([C@@H]2CN(C)C(=O)[C@H]2C(=O)Nc2cccc(F)c2F)cnc1Cl (racemic)", "%", 40),
]

* * *

plant injury at 250 g/ha for assorted compounds
- Tested on: corn (Zea mays)
- Assay Remarks: Test G Pre-Emergence Protocol
- Format: in vivo
- Protocol Conditions: Zea mays, pre-emergence, 312 h, 250 g ai/ha, evaluated after 13 days, read-out: Corn damage rating (100=total damage to plant; 0=no damage to plant)
Observed Property: plant injury at 250 g/ha (%)

# Compound, Observed Property, Unit Of Measurement, Observed Value
rows = [
    ("COc1cc(Cl)cc(C2CN(C)C(=O)C2C(=O)Nc2cccc(F)c2F)c1 (stereo not shown)", "plant injury at 250 g/ha", "%", 70),
    ("Cc1cc([C@H]2CN(C)C(=O)[C@@H]2C(=O)Nc2ccc(F)c(F)c2F)cnn1 (racemic)", "plant injury at 250 g/ha", "%", 0),
    ("COc1c(F)cc(C2CN(C)C(=O)C2C(=O)Nc2cccc(F)c2F)cc1Cl (stereo not shown)", "plant injury at 250 g/ha", "%", 90),
    ("CN1C[C@H](c2ccc3c(c2)CCCC3)[C@@H](C(=O)Nc2cccc(F)c2F)C1=O (racemic)", "plant injury at 250 g/ha", "%", 20),
]

* * *

- Test system: pigweed (Amaranthus retroflexus)
- Assay Remarks: Test C preemergence
- Format: in vivo
- Protocol Conditions: 62 g ai/ha, scale 0 to 100, 0 no effect, 100 complete control
Observed Property: Plant response rating, Pigweed

# Compound, Observed Value
records = [
    ("CN1CC(c2ccc(C(C)(F)F)cc2)C(C(=O)Nc2ccccc2F)C1=O (centres unmarked) [Compound 691]", 90),
    ("Cc1ccc(C2CN(C)C(=O)C2C(=O)Nc2cccc(F)c2F)cc1 (centres unmarked) [Compound 662]", 60),
    ("CN1CC(c2cccc(OC(F)(F)C(F)F)c2)C(C(=O)Nc2ccc(F)cc2F)C1=O (centres unmarked) [Compound 393]", 75),
    ("CN1C[C@H](c2ccc(F)c(F)c2)[C@@H](C(=O)Nc2cccc(F)c2F)C1=O [Compound 639]", 55),
    ("CN1CC(c2cccc(C(F)(F)F)c2)C(C(=O)Nc2ccccc2S(C)(=O)=O)C1=O (centres unmarked) [Compound 637]", 80),
]

* * *

- Tested on: ragweed (common ragweed, Ambrosia elatior)
- Assay Remarks: Test A preemergence
- Type: in vivo
- Protocol Conditions: 125 g ai/ha, Preemergence; visual injury after approximately 10 d; 0 to 100 scale where 0 is no effect and 100 is complete control

# Molecule, Plant response rating, Ragweed
measured = [
    ("O=C1NCC(c2ccc(Oc3ccccc3)cc2)C1C(=O)Nc1ccc(F)c(F)c1F (racemic)", 0),
    ("Cc1ccc(C2CN(C)C(=O)C2C(=O)Nc2cccc(F)c2F)cc1 (centres unmarked)", 80),
    ("CN1CC(c2cccc(C(F)(F)F)c2)C(C(=O)Nc2cccc(Cl)c2F)C1=O (centres unmarked)", 0),
    ("CCc1cccc(C2CN(C)C(=O)C2C(=O)Nc2ccccc2F)c1 (centres unmarked)", 50),
    ("COc1cccc(NC(=O)C2C(=O)NCC2c2cccc(C(F)(F)F)c2)c1F (racemic)", 0),
    ("O=C1NCC(c2ccc(Oc3ccccc3)cc2)C1C(=O)Nc1ccccc1Cl (racemic)", 0),
    ("CN1CC(c2cc(F)cc(F)c2)C(C(=O)Nc2ccccc2C(F)(F)F)C1=O (centres unmarked)", 0),
    ("CN1CC(c2ccc(C(F)(F)F)cc2F)C(C(=O)Nc2ccccc2S(C)(=O)=O)C1=O (centres unmarked)", 20),
]

* * *

- Tested on: giant foxtail (Setaria faberi)
- Assay Remarks: Test G Post-Emergence Protocol
- Assay type: in vivo
- Protocol Conditions: Setaria faberi, post-emergence, 312 h, 250 g ai/ha, evaluated after 13 days, 100=total damage to plant, 0=no damage to plant, read-out: Foxtail, Giant damage rating
The entries below are paired with their reported pest or weed control at 250 g/ha.

# Compound, Measured On, pest or weed control at 250 g/ha / %
data = [
    ("COc1cc(C2CN(C)C(=O)C2C(=O)Nc2cccc(F)c2F)cc(C)c1C (stereo not shown)", "giant foxtail (Setaria faberi)", 80),
    ("Cc1cc(C2CN(C)C(=O)C2C(=O)Nc2cccc(F)c2F)cc(C)c1Cl (stereo not shown)", "giant foxtail (Setaria faberi)", 70),
    ("CN1C[C@H](c2ccc(C(F)(F)F)cc2)[C@@H](C(=O)Nc2cccnc2[S+](C)[O-])C1=O (mixture of isomers)", "giant foxtail (Setaria faberi)", 0),
    ("CCOc1ccc([C@@H]2CN(C)C(=O)[C@H]2C(=O)Nc2cccc(F)c2C)cc1Cl (racemic)", "giant foxtail (Setaria faberi)", 80),
]
